Conditions: in n-propyl acetate, 278.15 K
MEASUREMENT NAME: solubility (mole fraction)

Query: // solubility (mole fraction) lookup, key: `CS(=O)(=O)OCCCCOS(C)(=O)=O`
Response: 0.00016

---

Conditions: in 2-ethoxyethanol, 288.15 K
MEASUREMENT NAME: solubility (mole fraction)

Query: // solubility (mole fraction) lookup, key: `CS(=O)(=O)OCCCCOS(C)(=O)=O`
Response: 0.000389

---

Conditions: in ethyl acetate, 308.15 K
MEASUREMENT NAME: solubility (mole fraction)
Give bare numbers.

Query: // solubility (mole fraction) lookup, key: `CS(=O)(=O)OCCCCOS(C)(=O)=O`
Response: 0.00287
